# credit: ChEMBL document CHEMBL4265985

I'd be grateful if you could share measured IC50 for these entries.
molecular target: Sodium/glucose cotransporter 2 (Homo sapiens, UniProt P31639); assay: Inhibition of human SGLT2 expressed in CHOK1 cells assessed as reduction in Na-dependent [14C]-methyl-alpha-D-glucopyranoside uptake after 1 hr by microbeta counting method
Sequence (P31639 whole entry): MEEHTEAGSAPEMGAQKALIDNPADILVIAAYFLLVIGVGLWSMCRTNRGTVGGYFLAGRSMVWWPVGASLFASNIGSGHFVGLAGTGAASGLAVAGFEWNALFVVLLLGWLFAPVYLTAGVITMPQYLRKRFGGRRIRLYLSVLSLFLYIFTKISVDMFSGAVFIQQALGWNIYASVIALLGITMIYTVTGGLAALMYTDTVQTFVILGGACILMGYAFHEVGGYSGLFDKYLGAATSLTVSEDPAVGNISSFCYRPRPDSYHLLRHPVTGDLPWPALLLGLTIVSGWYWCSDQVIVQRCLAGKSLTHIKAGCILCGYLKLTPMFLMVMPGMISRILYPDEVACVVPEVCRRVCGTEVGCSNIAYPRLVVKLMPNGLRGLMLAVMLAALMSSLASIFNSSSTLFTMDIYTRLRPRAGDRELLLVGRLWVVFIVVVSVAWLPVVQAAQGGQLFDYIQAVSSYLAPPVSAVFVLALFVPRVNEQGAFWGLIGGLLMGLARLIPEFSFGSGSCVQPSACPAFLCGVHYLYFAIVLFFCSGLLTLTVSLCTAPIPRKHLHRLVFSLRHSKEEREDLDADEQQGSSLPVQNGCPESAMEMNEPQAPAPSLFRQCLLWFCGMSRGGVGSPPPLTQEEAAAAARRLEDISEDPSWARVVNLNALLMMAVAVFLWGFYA
Please respond with the number in nM and leave the unit unwritten.

Query: Report IC50, nothing else, for this molecule: Cc1cc(O)c([C@@H]2S[C@H](CO)[C@@H](O)[C@H](O)[C@H]2O)cc1Cc1ccc(CCCC(=O)NC(C)(CO)CO)cc1
Response: 5

Query: Quote IC50 reported for Cc1cc(O)c([C@@H]2O[C@H](CO)[C@@H](O)[C@H](O)[C@H]2O)cc1Cc1ccc(CCCNC(=O)NC(C)(C)CO)cc1 please.
Response: 5

Query: Using the record for Cc1cc(O)c([C@@H]2O[C@H](CO)[C@@H](O)[C@H](O)[C@H]2O)cc1Cc1ccc(CCNC(=O)NC(C)(C)CO)cc1 , state its measured IC50.
Response: 4

Query: Report measured IC50; entry is Cc1cc(O)c([C@@H]2S[C@H](CO)[C@@H](O)[C@H](O)[C@H]2O)cc1Cc1ccc(OC(C)C)cc1
Response: 3

Query: Given the molecule Cc1cc(O)c([C@@H]2O[C@H](CO)[C@@H](O)[C@H](O)[C@H]2O)cc1Cc1ccc(CCCNC(=O)N2CCN(C)CC2)cc1 , write its reported IC50.
Response: 5

Query: Hello, please tell me recorded IC50 for this one: Cc1cc(O)c([C@@H]2O[C@H](CO)[C@@H](O)[C@H](O)[C@H]2O)cc1Cc1ccc(CCCNC(=O)NC(CO)(CO)CO)cc1
Response: 7
